test system: OVCAR-3; test: NCI tumour cell line growth inhibition, 48 h
The source made the active and inactive calls. No stated cut-off is given here; in the data, active = GI50 up to about 1.1 µM and inactive = higher.
ASSAY_ENDPOINT: GI50

// solved cases for GI50 follow
{"columns": ["MOLECULE", "MEASURED_TARGET", "GI50"],
 "data": [
  ["N=C(c1cccs1)C1(N2CCCCC2)CCCCC1", "OVCAR-3", "15.3 µM (inactive)"],
  ["O=C1C/C(=N/c2ccc(Cl)cc2)C(c2ccccc2)N1c1ccccc1 (stereo not given)", "OVCAR-3", "2.99 µM (inactive)"],
  ["COC(=O)/C(=N\\NC(C)(C)C)C(C(=O)OC)C(=O)C(=O)Nc1cc(Cl)ccc1Cl (stereo not given)", "OVCAR-3", "> 100 µM (inactive)"],
  ["Cc1ccc(-n2cc(-c3ccc(Cl)cc3)c3c2N=CN2N=C(c4ccco4)NC32)cc1 (stereo not given)", "OVCAR-3", "6.49 µM (inactive)"],
  ["COC(=O)C1C(O)C(C)C(=O)C(C)/C=C\\C=C(C)C(=O)Nc2c(C)c(OC(C)=O)c3c(c2O)C(=O)C(C)=C2OCOC(=C23)C(C)=CC(C)(O)C(O)C(C)C1O (stereo not given)", "OVCAR-3", "42.4 µM (inactive)"],
  ["CCOC(=O)c1cc2c([N+](=O)[O-])c(N)ccc2s1", "OVCAR-3", "> 100 µM (inactive)"]
]}

Incoming: So what does the record say about GI50 for O=C1NC(=S)S/C1=C/c1ccco1 ?
Outgoing: 50.1 µM (inactive)

Incoming: So what does the record say about GI50 for Nc1ccc(C(=O)Nc2ccccc2N)cc1 ?
Outgoing: 29.1 µM (inactive)

Incoming: So what does the record say about GI50 for COc1ccc(C/C=C(\C)CCO)cc1 ?
Outgoing: > 100 µM (inactive)

Incoming: So what does the record say about GI50 for O=C(c1ccccc1)[C@H]1Nc2ccc(Cl)cc2[C@H]2CCC[C@@H]12 ?
Outgoing: 27.2 µM (inactive)

---

Each item that follows carries a reported GI50.
system: NCI-H23; assay: NCI tumour cell line growth inhibition, 48 h
Active and inactive are the calls of the source. Rule as the data show it: active = GI50 up to about 1.1 µM and inactive = higher.

{"columns": ["COMPOUND", "MEASURED_TARGET", "GI50"],
 "data": [
  ["O=C1CSC2(CC(/C=C/c3ccccc3O)=NN2c2cccc(S(=O)(=O)O)c2)N1c1nc2ccccc2s1 (stereo not drawn)", "NCI-H23", "22.1 µM (inactive)"],
  ["Cc1nn(C(=O)Cc2ccccc2)c2c1C(c1ccc(Cl)cc1)SC(=N)N2 (stereo not drawn)", "NCI-H23", "> 100 µM (inactive)"],
  ["CCOC(=O)c1nc2ccccc2nc1NCc1cc(OC)c(OC)c(OC)c1", "NCI-H23", "> 100 µM (inactive)"],
  ["CCCCNC(=O)CCN(C(=O)O)S(=O)(=O)c1ccc(NC(=O)c2ccccc2)cc1", "NCI-H23", "> 100 µM (inactive)"],
  ["C=CC1(C)CCC2C(=CCC3C(C)(COC4OC(C(=O)O)C(O)C(O)C4O)C(O)CCC23C)C1.C=CC1(C)CCC2C(=CCC3C2(C)CC(O)C(O)C3(C)COC2OC(C(=O)O)C(O)C(O)C2O)C1 (stereo not drawn)", "NCI-H23", "> 100 µM (inactive)"]
]}

Incoming: So what does the record say about GI50 for O=C(/C=C/c1ccccc1)OCC1=C[C@@H](O)[C@@H]2C=CO[C@@H](OC3OC(CO)C(O)C(O)C3O)[C@H]12 (stereo partly drawn) ?
Outgoing: > 100 µM (inactive)

Incoming: So what does the record say about GI50 for O=C1CC[C@@]2(O)[C@H]3Cc4ccc(-c5ccccc5)c5c4[C@@]2(CCN3CC2CC2)[C@H]1O5 ?
Outgoing: 24.1 µM (inactive)

Incoming: So what does the record say about GI50 for COC(=O)c1ccc(Cl)cc1NC(=O)C1CCCCC1 ?
Outgoing: > 100 µM (inactive)
